Data provenance: BigSolDB 2.1

- measurement.conditions: in methanol, 283.15 K
measure.name: solubility (mole fraction)
// print number alone

Look up solubility (mole fraction): NC(N)=S
0.0421

###

- measurement.conditions: in methanol, 308.15 K
measure.name: solubility (mole fraction)
# print the numeric value only

Requested read-out: solubility (mole fraction). Entry: NC(N)=S
0.065

###

- measurement.conditions: in methanol, 288.15 K
measure.name: solubility (mole fraction)
Output spec: single numeric token, no unit.

Quick check: solubility (mole fraction) of NC(N)=S ?
0.046

###

- measurement.conditions: in ethanol, 293.15 K
measure.name: solubility (mole fraction)

# solubility (mole fraction) lookup, item NC(N)=S
0.0222
